test: protein stability index of a GFP-peptide fusion (yeast GPS) (PSI 1-4); higher = more stable; sorted into four equal gates, so the index is relative within each strain; details: san1∆
# protein stability index listing for each entry below
ENDPOINT NAME: protein stability index

• IYVHVRRSTPFSKIAEY [ESC2] = 2.52
• LHGLRSFYDAIFFNIPL [YJL039C/NUP192] = 2.31
• SLISTRNDSTVNDSVIS [BRN1] = 2.72
• IHIQETQEFSKNYTTET [SIR3] = 3.4
• GLVCADTFRAGAFDQLK [SRP54] = 3.34
• NAPAWFKLSSESVIEQI [RPS13] = 2.34
• DVAIENNTLSRYADAGN [RRP43] = 3.35
• KPETPKGPIIISKNPSN [SIR2] = 2.67
• MGRVIRNQRKGAGSIFT [RPL2A] = 2.77
• THRNKDGTGVRVIVAGT [FAS1] = 1.62
• ILGMLSLADNEIALKGL [YCS4] = 2.11
• QFDIQSPLYMDTETFDT [YML103C/NUP188] = 3.02
• SPVYDVDPRIINSENDY [NUT1] = 2.39
• RINSTDEDLHEFQIEDA [SRB8] = 2.86
• RITKSNEKSQAEQEKAK [LRP1] = 1.48
• TFNSKPVRTIVPISTSQ [SIR4] = 2.42
• KNDSLEKTINDLQRTQT [YIL149C/MLP2] = 2.82
• AVAASSTKTGTPSDLSE [POP1] = 3.41
• LEKCEAEFKKRKIEAET [YCS4] = 3.3
• KLNELDELILEAKERYT [NNF1] = 3.23
• HRSKKDQDQYLEIAKDF [IRR1] = 3.04
• TELRQLFQENDDDDDDD [DSN1] = 2.24
• CRELHNKHLTTLVEIFL [SSN3] = 1.82
• DLFSNNNYNSRIQLMND [MED1] = 2.93
• GDYVAYQLNGVAPFMIK [YMR129W/POM152] = 1.66
• SPIVNVLEDVYRCFAQL [RRI2] = 2.9
• ENIPVALCKNRKCQFRT [POP1] = 2.32
• HSGELMRQQSKELQQLQ [SMC1] = 2.9
• LEKLVDHHPEGLSAREA [PRE10] = 2.65
• LIEKLQGFSKDTFELIK [YDL116W/NUP84] = 3.29

* * *

assay: protein stability index of a GFP-peptide fusion (yeast GPS) (PSI 1-4); higher = more stable; sorted into four equal gates, so the index is relative within each strain; conditions: ubr1∆
ENDPOINT NAME: protein stability index

- LTDHRKETWLHELSSSH [SRB8]: 2.76
- TELRQLFQENDDDDDDD [DSN1]: 2.38
- QQLNKQRQDFERVRLRP [SNF6]: 2.79
- IANMVLPPEKIYSPLHS [SIR2]: 1.67
- HKSPNLSLMLESPNYCN [SRB4]: 2.71
- LNTFGSKICLSHFSLDQ [ITC1]: 2.33
- LKKELKLLAKELEEQES [SMC2]: 3.31
- KLDENNAQLSCITKQDG [PUP2]: 3.06
- EDARRNPNPSSQRAQVV [RPC37]: 3.38
- DSVATVIEVIETKWDDA [YJR042W/NUP85]: 2.1
- KNPLFSYVEPVLVASAK [RPL31A]: 2.76
- KALAIFVPVPSLAGFHK [RPS7A]: 1.85
- LNLLSQNNTTKFHSELQ [RPN12]: 2.16
- RLANLIDYKLRVLTQDG [SMB1]: 2.79

* * *

assay: protein stability index of a GFP-peptide fusion (yeast GPS) (PSI 1-4); higher = more stable; sorted into four equal gates, so the index is relative within each strain; settings: pdr5∆
ENDPOINT NAME: protein stability index

* TANALPLPAVFSAPIRP [RPL4A] | 2.1
* ISTSDVTRIINSSEIQS [RPL4A] | 2.64
* MQQAQFQAQQAQQAQQA [SNF2] | 2.86
* LGGDSDEANIEIDPLTG [BRN1] | 3.48
* YSRSVDKEWVFAALSDS [SSN2] | 1.25
* NTNNNNSTGHSSNTNNN [SWI1] | 2.29
* VDPEQEAHNKALNQFKR [RPT4] | 3.26
* DVAIENNTLSRYADAGN [RRP43] | 3.32
* FRHFIGIKAKHDKNIQK [ISW2] | 2.6
* GQKLLAIKYGYEDSGST [SRB4] | 2.91
* NNPANNTNNNNSTGHSS [SWI1] | 2.15
* SLKDLSSLRNQELLNAE [RPN3] | 2.15
* LADWRIRPLSKPMTAYA [RRP6] | 3.15
* SSENNQIILAYIKYNIL [SRP68] | 2.82
* FKLFNKYRPETAAEKKE [RPL8A] | 2.64

* * *

Recorded protein stability index values for a group of sequences are listed next.
assay: protein stability index of a GFP-peptide fusion (yeast GPS) (PSI 1-4); higher = more stable; sorted into four equal gates, so the index is relative within each strain; conditions: ubr1∆
ENDPOINT NAME: protein stability index

* NDSSATRSWRPPQAGDR [RPB8] | 2.76
* VRNYKPLINRLKHYNGY [SWI1] | 2.54
* NELPDIEALYDDDTFSD [RPN2] | 2.98
* LELRNSVMDDILEMMPE [PRP8] | 3.37
* KSLHEMNERDWRILKED [PRP28] | 3.01
* TFNSKPVRTIVPISTSQ [SIR4] | 2.35
* SYDVENVNSRNQLVEPN [SRB5] | 3.34
* MAKCLDNPDQGISDMCR [YCS4] | 3.2
* TNLQRNVDRLYKLNVRS [NUT2] | 3.49
* KKVVLRLECVKCKTRAQ [RPL42A] | 2.09
* KNTIDFERFPSPSTSAN [RPN4] | 3.03
* MEDIEKIKPYVRSFSKA [LRP1] | 2.74
* KRGEVVKIIRKSETSGR [RPB5] | 3.05
* GYENGMLAQWDLRSPEC [RPN14] | 3.65
* LVSEKIINSTALMKEKD [RPC82] | 3.27
* SGPFKVNGVPLRRVNAR [RPL6A] | 2.77
* KKRNPSKQNGSKFHFSW [PRP28] | 2.49
* NNVTSNPSEFTPNMVNS [SSN2] | 3.1
* EVDSASDFISKLEYPHT [RPN3] | 3.02
* YLESLFAKQVDVQLERV [IRR1] | 2.5
* KEIYYTPDPSELAAKEE [FAS2] | 2.53
* KRPPEIMSTEAHVNKVT [SIR4] | 2.73
* VGLKNYDPQRDKRFSGS [RPL1A] | 3.25
* LKKKVVDPFTRKEWFDI [RPS1B] | 2.88
* RSLEKVNNSVSKTGSVD [SSN2] | 3.37
* KERIVRAFLIEEQKIVK [RPL34B] | 2.74
* RRSLKKQGRIKNATEEL [CSN12] | 3.57
* SKFHFSWNESEDTLSGY [PRP28] | 3.47
* DGYQLFHAEPSGTFYRY [PUP2] | 1.5
* ELKEITSLPDWCQEAFP [BRR2] | 3.08
* QFLQLDNDGFSFLMRQF [ECM29] | 1.83

* * *

Entries and their measured protein stability index follow.
assay: protein stability index of a GFP-peptide fusion (yeast GPS) (PSI 1-4); higher = more stable; sorted into four equal gates, so the index is relative within each strain; conditions: ubr1∆
ENDPOINT NAME: protein stability index

- EHKPVSPDKIGTFTADY [SSN2]: 3.09
- TINLDRFMKGRRSKQLI [RPC82]: 2.74
- DLGITEKNDQNNDDDDN [MCD1]: 3.41
- EEKEKEQSKEVGDVVGG [BRN1]: 3.34
- LVSVTSTLQHFQETLDS [MED8]: 2.39
- LSLYSTDLENSSLFQEK [ECM29]: 2.77
- GILLLDSLIQLANRSKE [YJL039C/NUP192]: 1.97
- AAAEIADEPVKASLLLH [FAS2]: 1.17

* * *

test: protein stability index of a GFP-peptide fusion (yeast GPS) (PSI 1-4); higher = more stable; sorted into four equal gates, so the index is relative within each strain; conditions: doa10∆
Threshold rule: protein stability index greater than or equal to 3 is yes; below that, no.

- NNNQKIDDNYIVVVIEI [SRB8]: yes
- QKNYADPEKDSINATAL [SIN4]: no
- DKTAVKLDTEVKNTNAN [SWP82]: no
- SMENYHLLIKIIRQLSE [SRB8]: no
- TFNSKPVRTIVPISTSQ [SIR4]: no
- STKSNKTRNPLTHSTPK [RPL8A]: no
- LQFHVATYMDNDIAGQP [RPO21]: no
- AGFDPRDDEPKLYQTEP [PRE6]: yes
- TNGGLFGSGTQNNNTLG [YGR119C/NUP57]: yes
- NVGELIEKNVMESIGSD [RRP4]: no
- AAAEIADEPVKASLLLH [FAS2]: yes
- ARKYLQTRWGLPSGRQD [FAS2]: no
- VGVIIFILTIATAFLGY [COB]: no
- LIIRCRVVRPKSLDAET [RPO21]: no
- IEQLFPVRPVRVRHEDV [RPC53]: no
- GKALVHHYEECAERVKI [QCR6]: yes
- SNEFVPNTSDNNNNSNN [SWI1]: no
- LFLYKELVKAHLGERAA [RPC82]: no
- FVTQFRHLRRTGKVSEF [RET1]: yes
- KFSSRHGQKGVCGIIVK [RET1]: yes
- EEVEDQINPTRETNDDI [SNF2]: no
- KKEENETISNVAKTAPN [SNF2]: no
- ARENAPSIIFIDEVDSI [RPT3]: no
- AEEALEPSYIFEYLATV [PRE4]: no
- PLKYTKLIAAAEDGSRS [SNF6]: no
- RKEWFDIKAPSTFENRN [RPS1A]: no
- ARNLYIIAVKGSGSRLN [RPL23A]: no
- RKIKRLEKFLQGRDTSK [SRP72]: no
- LSDLSSPVQDWNLLRSL [YML103C/NUP188]: yes
- KCKTRAQLTLKRCKHFE [RPL42A]: no
- AAGAGAAAGAAMIDAGA [FAS2]: no
- GASINSMKANTSTNPNG [ARP7]: no
- DKLINDVTAIQTWSYLS [ECM29]: no
- VQVGPMKVFVTKHLMPQ [RPB7]: no
- ALFLSKINRPPVSVSRI [RPL18A]: no
- ENLEESFLSKHALYLAP [SSN2]: yes
- EGHLAEIRAKEYKTSSD [SRB2]: yes
- ENIPVALCKNRKCQFRT [POP1]: no
- ILGMLSLADNEIALKGL [YCS4]: no
- NVTKSSVGVIINKMVGN [RPL21A]: no
- QNNTTKFHSELQYLDKH [RPN12]: no
